Protocol text: Caco-2 permeability assay
Assay type: in vitro ADME
Protocol conditions: human, 1 hour at 37° C., HBSS pH 7.4 both sides, read-out: influx/efflux ratio in Caco-2
Property measured: efflux ratio at 1 h, 5 µM

CNC(=O)c1cc(Oc2ccc(NC(=O)Nc3cc(C(F)(C(F)(F)F)C(F)(F)F)ccc3F)cc2)ccn1 : > 2

Let's switch to this compound now.
Note down efflux ratio at 1 h, 5 µM recorded for "CNC(=O)c1cc(Oc2ccc(NC(=O)Nc3ccc(Cl)c(C(F)(F)F)c3)cc2)ccn1"
> 2

From: patent US20240287081A1
